target: Aldo-keto reductase family 1 member C1 (Homo sapiens); assay: Inhibition of human recombinant AKR1C1 expressed in Escherichia coli assessed as decrease in oxidation of 1-acenaphthenol substrate at 100 uM by spectrophotometric analysis
reported endpoint: inhibition

Before answering, review these 3 worked examples.
CS(=O)(=O)c1ccc(/C(=C\c2ccc(O)c(O)c2)C(=O)O)cc1	46.5%
COc1cc(/C(=C\c2ccc3ccccc3c2)C(=O)O)cc(OC)c1OC	9.6%
CS(=O)(=O)c1ccc(/C=C(/C(=O)O)c2ccccc2)cc1	77.6%

Query block: State the recorded inhibition for this entry: COc1cc(/C(=C\c2cccc(OC(C)=O)c2)C(=O)O)cc(OC)c1OC
Result block: 40%

Measured values drawn from ChEMBL document CHEMBL2331309 for this set.
